# Test Summary: Resistance index, ratio of IC50 for human LoVo/DX cells to IC50 for human LoVo cells
# Format: functional
Property Measured: Ratio IC50

Data request: Reported Ratio IC50, molecule CCNC(=O)O[C@@H]1C=C[C@]2(O[C@H]([C@@H](CC)C(=O)[C@@H](C)[C@@H](O)[C@H](C)[C@@H]3O[C@@H]([C@@H](CC)C(=O)OCC(F)(F)F)CC[C@@H]3C)[C@@H](C)C[C@H]2C)O[C@@]12CC[C@@](C)([C@H]1CC[C@](O)(CC)[C@H](C)O1)O2 : ____
Data returned: 1.4

Data request: Follow-up item: CC[C@@H](C(=O)[C@@H](C)[C@@H](O)[C@H](C)[C@@H]1O[C@@H]([C@@H](CC)C(=O)O)CC[C@@H]1C)[C@H]1O[C@]2(C=C[C@@H](O)[C@]3(CC[C@@](C)([C@H]4CC[C@](O)(CC)[C@H](C)O4)O3)O2)[C@H](C)C[C@@H]1C
Data returned: 1.6

Data request: Follow-up item: C#CCOC(=O)[C@H](CC)[C@H]1CC[C@H](C)[C@H]([C@@H](C)[C@H](O)[C@H](C)C(=O)[C@H](CC)[C@H]2O[C@]3(C=C[C@@H](O)[C@]4(CC[C@@](C)([C@H]5CC[C@](O)(CC)[C@H](C)O5)O4)O3)[C@H](C)C[C@@H]2C)O1
Data returned: 0.67

Data request: Follow-up item: CC[C@@H](C(=O)[C@@H](C)[C@@H](O)[C@H](C)[C@@H]1O[C@@H]([C@@H](CC)C(=O)NCCc2ccc(F)cc2)CC[C@@H]1C)[C@H]1O[C@]2(C=C[C@@H](O)[C@]3(CC[C@@](C)([C@H]4CC[C@](O)(CC)[C@H](C)O4)O3)O2)[C@H](C)C[C@@H]1C
Data returned: 0.66

Data request: Follow-up item: C#CCNC(=O)[C@H](CC)[C@H]1CC[C@H](C)[C@H]([C@@H](C)[C@H](O)[C@H](C)C(=O)[C@H](CC)[C@H]2O[C@]3(C=C[C@@H](OC(C)=O)[C@]4(CC[C@@](C)([C@H]5CC[C@](O)(CC)[C@H](C)O5)O4)O3)[C@H](C)C[C@@H]2C)O1
Data returned: 0.84

Data request: Follow-up item: CCOC(=O)O[C@@H]1C=C[C@]2(O[C@H]([C@@H](CC)C(=O)[C@@H](C)[C@@H](O)[C@H](C)[C@@H]3O[C@@H]([C@@H](CC)C(=O)NCCc4ccc(F)cc4)CC[C@@H]3C)[C@@H](C)C[C@H]2C)O[C@@]12CC[C@@](C)([C@H]1CC[C@](O)(CC)[C@H](C)O1)O2
Data returned: 1.4

Data request: Follow-up item: C#CCNC(=O)[C@H](CC)[C@H]1CC[C@H](C)[C@H]([C@@H](C)[C@H](O)[C@H](C)C(=O)[C@H](CC)[C@H]2O[C@]3(C=C[C@@H](OC(=O)NCC)[C@]4(CC[C@@](C)([C@H]5CC[C@](O)(CC)[C@H](C)O5)O4)O3)[C@H](C)C[C@@H]2C)O1
Data returned: 0.9

* * *

# Test Summary: Selectivity index, ratio of IC50 for human MCF10A cells to IC50 for human LoVo cells
# Assay type: toxicity
# Experimental Context: MCF10A cells versus LoVo cells, read-out: Ratio IC50
Property Measured: selectivity ratio
# print the numeric value only

Data request: Reported selectivity ratio, compound CCNC(=O)O[C@@H]1C=C[C@]2(O[C@H]([C@@H](CC)C(=O)[C@@H](C)[C@@H](O)[C@H](C)[C@@H]3O[C@@H]([C@@H](CC)C(=O)OCC(F)(F)F)CC[C@@H]3C)[C@@H](C)C[C@H]2C)O[C@@]12CC[C@@](C)([C@H]1CC[C@](O)(CC)[C@H](C)O1)O2 : ____
Data returned: 11

Data request: Follow-up item: C#CCNC(=O)[C@H](CC)[C@H]1CC[C@H](C)[C@H]([C@@H](C)[C@H](O)[C@H](C)C(=O)[C@H](CC)[C@H]2O[C@]3(C=C[C@@H](OC(C)=O)[C@]4(CC[C@@](C)([C@H]5CC[C@](O)(CC)[C@H](C)O5)O4)O3)[C@H](C)C[C@@H]2C)O1
Data returned: 21

* * *

# Test Summary: Selectivity index, ratio of IC50 for human MCF10A cells to IC50 for human LoVo/DX cells
# Format: toxicity
# Experimental Context: MCF10A cells versus LoVo/DX cells, read-out: Ratio IC50
Exercise: for every item that follows, state its recorded selectivity ratio.
# print the numeric value only

Data request: Reported selectivity ratio, molecule CC[C@@H](C(=O)[C@@H](C)[C@@H](O)[C@H](C)[C@@H]1O[C@@H]([C@@H](CC)C(=O)O)CC[C@@H]1C)[C@H]1O[C@]2(C=C[C@@H](O)[C@]3(CC[C@@](C)([C@H]4CC[C@](O)(CC)[C@H](C)O4)O3)O2)[C@H](C)C[C@@H]1C [SALINOMYCIN] : ____
Data returned: 67

Data request: Follow-up item: C#CCNC(=O)[C@H](CC)[C@H]1CC[C@H](C)[C@H]([C@@H](C)[C@H](O)[C@H](C)C(=O)[C@H](CC)[C@H]2O[C@]3(C=C[C@@H](OC(=O)NCC)[C@]4(CC[C@@](C)([C@H]5CC[C@](O)(CC)[C@H](C)O5)O4)O3)[C@H](C)C[C@@H]2C)O1
Data returned: 22

Data request: Follow-up item: C#CCNC(=O)[C@H](CC)[C@H]1CC[C@H](C)[C@H]([C@@H](C)[C@H](O)[C@H](C)C(=O)[C@H](CC)[C@H]2O[C@]3(C=C[C@@H](O)[C@]4(CC[C@@](C)([C@H]5CC[C@](O)(CC)[C@H](C)O5)O4)O3)[C@H](C)C[C@@H]2C)O1
Data returned: 20

Data request: Follow-up item: CC[C@@H](C(=O)[C@@H](C)[C@@H](O)[C@H](C)[C@@H]1O[C@@H]([C@@H](CC)C(=O)NCCc2ccc(F)cc2)CC[C@@H]1C)[C@H]1O[C@]2(C=C[C@@H](OC(C)=O)[C@]3(CC[C@@](C)([C@H]4CC[C@](O)(CC)[C@H](C)O4)O3)O2)[C@H](C)C[C@@H]1C
Data returned: 12

Data request: Follow-up item: CC[C@@H](C(=O)[C@@H](C)[C@@H](O)[C@H](C)[C@@H]1O[C@@H]([C@@H](CC)C(=O)OCC(F)(F)F)CC[C@@H]1C)[C@H]1O[C@]2(C=C[C@@H](O)[C@]3(CC[C@@](C)([C@H]4CC[C@](O)(CC)[C@H](C)O4)O3)O2)[C@H](C)C[C@@H]1C
Data returned: 11

Data request: Follow-up item: C#CCOC(=O)[C@H](CC)[C@H]1CC[C@H](C)[C@H]([C@@H](C)[C@H](O)[C@H](C)C(=O)[C@H](CC)[C@H]2O[C@]3(C=C[C@@H](O)[C@]4(CC[C@@](C)([C@H]5CC[C@](O)(CC)[C@H](C)O5)O4)O3)[C@H](C)C[C@@H]2C)O1
Data returned: 21

Data request: Follow-up item: CC[C@@H](C(=O)[C@@H](C)[C@@H](O)[C@H](C)[C@@H]1O[C@@H]([C@@H](CC)C(=O)NCCc2ccc(F)cc2)CC[C@@H]1C)[C@H]1O[C@]2(C=C[C@@H](O)[C@]3(CC[C@@](C)([C@H]4CC[C@](O)(CC)[C@H](C)O4)O3)O2)[C@H](C)C[C@@H]1C
Data returned: 16

* * *

# Tested on: MCF-10A
# Test Summary: Antiproliferative activity against human MCF10A cells after 72 hrs by SRB assay
# Format: cell-based
Property Measured: pIC50
Units for pIC50: none; it is -log10 of a concentration expressed in mol/L.

Data request: Notebook entry, MCF-10A assay: pIC50 of C#CCOC(=O)[C@H](CC)[C@H]1CC[C@H](C)[C@H]([C@@H](C)[C@H](O)[C@H](C)C(=O)[C@H](CC)[C@H]2O[C@]3(C=C[C@@H](O)[C@]4(CC[C@@](C)([C@H]5CC[C@](O)(CC)[C@H](C)O5)O4)O3)[C@H](C)C[C@@H]2C)O1 = ?
Data returned: 4.27

Data request: Follow-up item: C#CCNC(=O)[C@H](CC)[C@H]1CC[C@H](C)[C@H]([C@@H](C)[C@H](O)[C@H](C)C(=O)[C@H](CC)[C@H]2O[C@]3(C=C[C@@H](OC(C)=O)[C@]4(CC[C@@](C)([C@H]5CC[C@](O)(CC)[C@H](C)O5)O4)O3)[C@H](C)C[C@@H]2C)O1
Data returned: 4.04

Data request: Follow-up item: CC[C@@H](C(=O)[C@@H](C)[C@@H](O)[C@H](C)[C@@H]1O[C@@H]([C@@H](CC)C(=O)O)CC[C@@H]1C)[C@H]1O[C@]2(C=C[C@@H](O)[C@]3(CC[C@@](C)([C@H]4CC[C@](O)(CC)[C@H](C)O4)O3)O2)[C@H](C)C[C@@H]1C [SALINOMYCIN]
Data returned: 4.34

Data request: Follow-up item: CC[C@@H](C(=O)[C@@H](C)[C@@H](O)[C@H](C)[C@@H]1O[C@@H]([C@@H](CC)C(=O)NCCc2ccc(F)cc2)CC[C@@H]1C)[C@H]1O[C@]2(C=C[C@@H](O)[C@]3(CC[C@@](C)([C@H]4CC[C@](O)(CC)[C@H](C)O4)O3)O2)[C@H](C)C[C@@H]1C
Data returned: 4.40

Data request: Follow-up item: C#CCNC(=O)[C@H](CC)[C@H]1CC[C@H](C)[C@H]([C@@H](C)[C@H](O)[C@H](C)C(=O)[C@H](CC)[C@H]2O[C@]3(C=C[C@@H](OC(=O)NCC)[C@]4(CC[C@@](C)([C@H]5CC[C@](O)(CC)[C@H](C)O5)O4)O3)[C@H](C)C[C@@H]2C)O1
Data returned: 4.09

Data request: Follow-up item: CCNC(=O)O[C@@H]1C=C[C@]2(O[C@H]([C@@H](CC)C(=O)[C@@H](C)[C@@H](O)[C@H](C)[C@@H]3O[C@@H]([C@@H](CC)C(=O)NCCc4ccc(F)cc4)CC[C@@H]3C)[C@@H](C)C[C@H]2C)O[C@@]12CC[C@@](C)([C@H]1CC[C@](O)(CC)[C@H](C)O1)O2
Data returned: 4.24

Data request: Follow-up item: CC[C@@H](C(=O)[C@@H](C)[C@@H](O)[C@H](C)[C@@H]1O[C@@H]([C@@H](CC)C(=O)OCC(F)(F)F)CC[C@@H]1C)[C@H]1O[C@]2(C=C[C@@H](O)[C@]3(CC[C@@](C)([C@H]4CC[C@](O)(CC)[C@H](C)O4)O3)O2)[C@H](C)C[C@@H]1C
Data returned: 4.37

Data request: Follow-up item: C#CCNC(=O)[C@H](CC)[C@H]1CC[C@H](C)[C@H]([C@@H](C)[C@H](O)[C@H](C)C(=O)[C@H](CC)[C@H]2O[C@]3(C=C[C@@H](O)[C@]4(CC[C@@](C)([C@H]5CC[C@](O)(CC)[C@H](C)O5)O4)O3)[C@H](C)C[C@@H]2C)O1
Data returned: 4.21

Data request: Follow-up item: CC[C@@H](C(=O)[C@@H](C)[C@@H](O)[C@H](C)[C@@H]1O[C@@H]([C@@H](CC)C(=O)NCCc2ccc(F)cc2)CC[C@@H]1C)[C@H]1O[C@]2(C=C[C@@H](OC(C)=O)[C@]3(CC[C@@](C)([C@H]4CC[C@](O)(CC)[C@H](C)O4)O3)O2)[C@H](C)C[C@@H]1C
Data returned: 4.37
